experiment: Drug distribution in Sprague-Dawley rat liver at 10 mg/kg, po measured at 24 hrs by LC-MS/MS analysis; assay type: ADME, organism-based; conditions: read-out: Ct
Measurement Label: concentration at 24 h (ng/g)
Write down the numeric answer in ng/g and omit the unit.

Data request: What does the data say about its concentration at 24 h? Entry: CC(=O)N1CCc2c(c(N3CCCc4cc(-c5cnn(C)c5)c(C(F)F)cc43)nn2[C@H]2CC[C@H](CN3Cc4cc5c(cc4C3)C(=O)N(C3CCC(=O)NC3=O)C5=O)CC2)C1 (stereo partly specified)
Data returned: 20.2

###

assay: Plasma protein binding in dog by LC-MS analysis; format: ADME, cell-free, Canis lupus familiaris; conditions: read-out: PPB (converted)
Measurement Label: fraction unbound
# print the numeric value only

Data request: What does the data say about its fraction unbound? Entry: CC(=O)N1CCc2c(c(N3CCCc4cc(-c5cnn(C)c5)c(C(F)F)cc43)nn2[C@H]2CC[C@H](CN3Cc4cc5c(cc4C3)C(=O)N(C3CCC(=O)NC3=O)C5=O)CC2)C1 (stereo partly specified)
Data returned: 0.009

###

test: Half life in Sprague-Dawley rat at 1 mg/kg, iv measured upto 24 hrs by LC-MS/MS analysis; assay type: ADME, organism-based; details: in vivo
Measurement Label: t1/2

Data request: What does the data say about its t1/2? Entry: CC(=O)N1CCc2c(c(N3CCCc4ccc(C(F)F)cc43)nn2C2CCN(C(=O)CN3Cc4cc5c(cc4C3)C(=O)N(C3CCC(=O)NC3=O)C5=O)CC2)C1 (configuration not stated)
Data returned: 1.1 h

Data request: What does the data say about its t1/2? Entry: CC(=O)N1CCc2c(c(N3CCCc4cc(-c5cnn(C)c5)c(C(F)F)cc43)nn2C2CCN(C(=O)CN3Cc4cc5c(cc4C3)C(=O)N(C3CCC(=O)NC3=O)C5=O)CC2)C1 (configuration not stated)
Data returned: 1.3 h

###

assay: Drug distribution in SCID mouse liver at 1 mg/kg, po measured at 24 hrs by LC-MS/MS analysis; assay type: ADME, organism-based; details: read-out: Ct
Measurement Label: concentration at 24 h (ng/mL)
Write down the numeric answer in ng/mL and omit the unit.

Data request: What does the data say about its concentration at 24 h? Entry: CC(=O)N1CCc2c(c(N3CCCc4cc(-c5cnn(C)c5)c(C(F)F)cc43)nn2[C@H]2CC[C@H](CN3Cc4cc5c(cc4C3)C(=O)N(C3CCC(=O)NC3=O)C5=O)CC2)C1 (stereo partly specified)
Data returned: 13.7

###

test: Drug distribution in Sprague-Dawley rat liver at 3 mg/kg, po measured at 24 hrs by LC-MS/MS analysis; assay type: ADME, organism-based; conditions: read-out: Ct
Measurement Label: concentration at 24 h (ng/g)
Write down the numeric answer in ng/g and omit the unit.

Data request: What does the data say about its concentration at 24 h? Entry: CC(=O)N1CCc2c(c(N3CCCc4cc(-c5cnn(C)c5)c(C(F)F)cc43)nn2[C@H]2CC[C@H](CN3Cc4cc5c(cc4C3)C(=O)N(C3CCC(=O)NC3=O)C5=O)CC2)C1 (stereo partly specified)
Data returned: 8.4

###

assay: Drug distribution in SCID mouse spleen at 1 mg/kg, po measured at 6 hrs by LC-MS/MS analysis; assay type: ADME, organism-based; conditions: read-out: Ct
Measurement Label: concentration at 6 h (ng/mL)
Write down the numeric answer in ng/mL and omit the unit.

Data request: What does the data say about its concentration at 6 h? Entry: CC(=O)N1CCc2c(c(N3CCCc4cc(-c5cnn(C)c5)c(C(F)F)cc43)nn2[C@H]2CC[C@H](CN3Cc4cc5c(cc4C3)C(=O)N(C3CCC(=O)NC3=O)C5=O)CC2)C1 (stereo partly specified)
Data returned: 127
